target: Neu5Ac(a2-3)Gal(b1-4)GlcNAc(b1-6)[Neu5Ac(a2-3)Gal(b1-3)]GalNAc; experiment: glycan array binding signal (z-score within array); higher = stronger binding; conditions: glycan notation: IUPAC condensed, linker removed
About 410 targets per protein were measured; listed, in parts, are those with the strongest signals and a random draw of the rest.
For each record, write down the corresponding glycan array binding signal (z-score).
The answer should be a number; do not append a unit.

*Q* Any idea what its glycan array binding signal (z-score) is? The binder is rCnSL-proA (Clitocybe nebularis) (protein) AAFFSLVVLLALLPFGIHASALPSTELTPRVNPNLPGPNDVFVGFRGTNNIVGAIYEKDGIKDTPLNNGADAEMGPGSYITDGLFTARIFASGSAGNNPGTTATVCKIYASGVQWRGAPKGYIPVAYFGNGPTAEQRRQTYLRTLGLPGTAIRFGNLNTNPGQGPTAPRQMVVPPGPLRSLLKASCFPAADTRLPQTLHYFEKRVDWNIITAADSQTWGH
*A* -0.211

*Q* Any idea what its glycan array binding signal (z-score) is? The binder is LcH (Lens culinaris), P02870 (protein) TETTSFSITKFSPDQQNLIFQGDGYTGKEGLTLTKVSKETGGRALYSTPIHIWDRDTVNVANFVTNGSQVFRESPNGYNVADGFTFFIAPVDTKPQTGGGYLGVFYNGKEYDKTSQTVAVEFDTFYNAAWDPSNKERHIGIDVNSIKSVNTKSWNLQNGVTSYTLNEVVPLKDVVPEWVRIGFSATTGAEFAAQEVHSWSFNSQLGHTSKS
*A* -0.129

*Q* Any idea what its glycan array binding signal (z-score) is? The binder is DCL-1 (Homo sapiens), Q8IX05 (protein) MLRAALPALLLPLLGLAAAAVADCPSSTWIQFQDSCYIFLQEAIKVESIEDVRNQCTDHGADMISIHNEEENAFILDTLKKQWKGPDDILLGMFYDTDDASFKWFDNSNMTFDKWTDQDDDEDLVDTCAFLHIKTGEWKKGNCEVSSVEGTLCKTAIPYKRKYLSDNHILISALVIASTVILTVLGAIIWFLYKKHSDSRFTTVFSTAPQSPYNEDCVLVVGEENEYPVQFD
*A* 0.223
